Measured IC50 on UDP-N-acetylmuramate--L-alanine ligase (Escherichia coli (strain K12)) follows.
Sequence (P17952 whole entry): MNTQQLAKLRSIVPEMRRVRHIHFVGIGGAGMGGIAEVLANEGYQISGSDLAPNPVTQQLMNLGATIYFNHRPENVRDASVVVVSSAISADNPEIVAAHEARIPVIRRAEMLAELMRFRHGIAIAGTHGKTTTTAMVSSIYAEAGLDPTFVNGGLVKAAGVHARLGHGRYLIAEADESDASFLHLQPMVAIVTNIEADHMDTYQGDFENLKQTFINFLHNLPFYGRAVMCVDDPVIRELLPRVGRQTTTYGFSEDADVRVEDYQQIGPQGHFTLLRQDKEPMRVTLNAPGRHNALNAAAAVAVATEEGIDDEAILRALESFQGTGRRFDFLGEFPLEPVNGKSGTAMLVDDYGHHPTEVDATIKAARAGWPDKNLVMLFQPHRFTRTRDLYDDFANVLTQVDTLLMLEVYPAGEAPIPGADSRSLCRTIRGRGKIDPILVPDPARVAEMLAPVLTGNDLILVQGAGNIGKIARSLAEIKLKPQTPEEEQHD

# count of solved cases: 6
O=C1NC(=S)C/C1=C\c1cc([N+](=O)[O-])ccc1SCc1ccc(Cl)cc1    27 µM
O=C1OC(=Cc2cccc3ccccc23)C(=O)C1c1ccc(C(F)(F)F)cc1 (stereo not drawn)    13 µM
O=C(NN=Cc1ccc(O)c(O)c1O)c1[nH]nc2ccccc12    123 µM
CC(C)C[C@H](NS(=O)(=O)c1cccc([N+](=O)[O-])c1)C(=O)NNS(=O)(=O)c1ccc2ccccc2c1    245 µM
CC(=O)N[C@H]1C(OP(=O)(O)OP(=O)(O)OC[C@H]2O[C@@H](n3ccc(=O)[nH]c3=O)[C@H](O)[C@@H]2O)O[C@H](CO)[C@@H](O)[C@@H]1OCP(=O)(O)CC(C)C(=O)O (stereo partly drawn)    0.049 µM
CC(Oc1nc2ccccc2nc1N)c1ccccc1 (stereo not drawn)    30.2 µM

Observed IC50, UDP-N-acetylmuramate--L-alanine ligase (Escherichia coli (strain K12)), Cc1ccc(C(=O)NS(=O)(=O)c2ccc(-c3cc4cc(-c5ccccc5)ccc4o3)cc2)s1 : 2.3 µM

Observed IC50, UDP-N-acetylmuramate--L-alanine ligase (Escherichia coli (strain K12)), O=C(NN=Cc1ccc(O)c(O)c1O)c1cnc(-c2ccccc2)s1 : 32 µM

###

Each record here notes measured IC50.
Biological target: UDP-N-acetylenolpyruvoylglucosamine reductase (Escherichia coli (strain K12), UniProt P08373)
Sequence (P08373 whole entry): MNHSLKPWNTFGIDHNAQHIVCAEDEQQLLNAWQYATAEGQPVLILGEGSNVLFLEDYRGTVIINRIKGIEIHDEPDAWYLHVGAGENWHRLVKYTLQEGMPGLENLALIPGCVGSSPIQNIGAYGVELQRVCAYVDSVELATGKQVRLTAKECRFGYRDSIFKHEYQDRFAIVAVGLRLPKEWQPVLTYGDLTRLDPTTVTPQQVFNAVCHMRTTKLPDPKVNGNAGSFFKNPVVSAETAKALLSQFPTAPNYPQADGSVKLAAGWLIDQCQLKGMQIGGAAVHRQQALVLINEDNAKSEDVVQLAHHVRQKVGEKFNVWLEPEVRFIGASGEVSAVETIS
Response body: numeric value in µM, unit text excluded.

# count of solved cases: 3
CCCC[C@@H](C(=O)O)N1C(=O)CSC1c1cccc(Oc2ccc(C(C)(C)C)cc2)c1 (stereo not given in full)    7.7
CCCC[C@@H](C(=O)O)n1c(-c2cccc(Oc3ccc(C(C)(C)C)cc3)c2)cn(Cc2ccccc2)c1=O    7.7
O=C1OC(=Cc2cccc3ccccc23)C(=O)C1c1ccc(C(F)(F)F)cc1 (stereo not given)    18

GET /value?item= O=C(Nc1ccc(Cl)c(Cl)c1)Nc1ncc([N+](=O)[O-])s1 &field=IC50 returns 3.8

GET /value?item= CC1(CC(=O)Nc2ccc(Cl)cc2Cl)C(=O)N(c2ccc(Cl)cc2)N(c2ccc(Cl)cc2)C1=O &field=IC50 returns 4.1

###

molecular target: UDP-N-acetylglucosamine 1-carboxyvinyltransferase (Enterobacter cloacae subsp. cloacae (strain ATCC 13047 / DSM 30054 / NBRC 13535 / NCTC 10005 / WDCM 00083 / NCDC 279-56), UniProt P33038)
Sequence (P33038 whole entry): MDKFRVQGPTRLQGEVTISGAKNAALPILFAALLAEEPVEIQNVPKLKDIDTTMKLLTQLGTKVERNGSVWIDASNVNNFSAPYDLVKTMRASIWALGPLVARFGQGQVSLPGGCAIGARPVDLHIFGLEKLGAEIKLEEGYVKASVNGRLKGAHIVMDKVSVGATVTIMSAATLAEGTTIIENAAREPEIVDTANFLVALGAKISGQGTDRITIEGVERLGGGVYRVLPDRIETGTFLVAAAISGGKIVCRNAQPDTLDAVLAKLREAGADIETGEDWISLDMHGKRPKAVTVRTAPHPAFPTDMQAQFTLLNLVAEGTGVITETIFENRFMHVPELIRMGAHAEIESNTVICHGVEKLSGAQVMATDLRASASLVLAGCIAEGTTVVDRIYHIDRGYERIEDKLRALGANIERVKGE
Recorded endpoint: Ki
Just the number plus its unit, please.

GET /value?item= CN(C(=O)C1CC(OS(=O)(=O)c2cccc3ccccc23)CCC1NS(=O)(=O)c1cccc2ccccc12)[C@@H](CCCC(=O)O)C(=O)O (stereo partly specified) [T6361 (compound 4)] &field=Ki returns 16 µM
